target.of.assay: Uracil-DNA glycosylase (Homo sapiens)
measurement.setup: Compound Concentration 10.0 uM, Hit No
Description: Inhibition of UNG by quantifying inhibition of UNG-mediated cleavage and dissociation of quenched duplex DNA oligonucleotides, measured as fluorescence at 594 nm. To generate a functional strand incision and increase turn-over this assay is coupled to APE1.
Answer each item with its documented inhibition.
Please give a number only; it is taken to be in %.

Q. Quick one: inhibition for `C=CC(=O)Nc1ccc2[nH]c(=O)n(C3CCN(C(=O)c4ccc(-c5nc6cc[nH]c(=O)c6cc5-c5ccccc5)cc4)CC3)c2c1` ?
A. -1.3

Q. Subsequent entry: `O=C(O)[C@@H]1[C@@H](Cn2nnc3ccccc3c2=O)CC[C@H]1C(=O)c1ccc(OCCC2CCOCC2)cc1`
A. 2.54

Q. Now consider `CN([C@@H]1CCc2c(CC(=O)O)c3ccccc3n2C1)S(=O)(=O)c1ccc(F)cc1` .
A. 2.73

Q. Proceed to `COc1cc2c(cc1CC=C(C)C)C(=O)C[C@@H](c1ccc(O)cc1)O2`
A. 0.826

Q. Okay, and O=C(N[C@H]1CCCCC/C=C\C2C[C@@]2(C(=O)O)NC(=O)[C@@H]2C[C@@H](Oc3ccncc3)CN2C1=O)OC1CCCC1 (some centres not stated) ?
A. 4.34

Q. Lookup `CSCC[C@H](NC(=O)[C@H](Cc1ccc(O)cc1)NC(=O)[C@H](CCCCN)NC(=O)[C@@H](N)Cc1c[nH]c2ccccc12)C(=O)N[C@H](C(=O)N[C@H](CCSC)C(N)=O)C(C)C`
A. -1.7

Q. Consider next the compound `COc1ccccc1Nc1nc(-c2nn(Cc3c(F)cc(OCCCO)cc3F)c3ccccc23)ncc1OC` in the same way.
A. 2.87

Q. Then what about the compound `COC1(C[S@@+]([O-])c2ccccc2)CCN(CCc2c[nH]c3ccc(F)cc23)CC1` ?
A. -4

Q. Same read-out for `CCc1cc2c(cc1CC)CC(NC[C@H](O)c1ccc(O)c3[nH]c(=O)ccc13)C2` ?
A. -8.46

Q. Now this one: `CC(C)Oc1ccccc1C(=O)Nc1ccccc1C(=O)Nc1cccc(S(=O)(=O)C(F)(F)F)c1`
A. -8.11

Q. How about this compound: `Cc1[nH]cnc1CN1CCc2c(c3ccccc3n2C)C1=O`
A. -6.85

Q. Same read-out for `Nc1nc(-c2ccco2)c2cnn(Cc3ccccc3F)c2n1` ?
A. -7.72

Q. Please give the result for `CCCCOCCOc1nc(-c2ccc(C(=O)O)c(F)c2)sc1C` too.
A. 1.01

Q. Next compound: `O=C(Cc1ccc(Cl)c(Cl)c1)N1CCCC[C@H]1CN1CCCC1`
A. -9.61

Q. Another compound to look at: `CC(C)C[C@H](NC(=O)[C@H](CC(N)=O)NC(=O)[C@@H]1CCCN1C(=O)[C@@H](N)C(C)C)C(=O)N1CCC[C@H]1C(=O)N[C@@H](CCC(N)=O)C(=O)N[C@@H](CCCNC(=N)N)C(=O)N[C@@H](Cc1ccccc1)C(N)=O`
A. -4.09

Q. Would you mind doing `COc1ccc(-n2nc3c4ccccc4[nH]cc-3c2=O)cc1` as well?
A. -4.77

Q. Repeat with `Nc1ncnc2c1ncn2[C@@H]1O[C@H](CO)[C@@H](O)[C@H]1O`
A. -7.49

###

target.of.assay: Uracil-DNA glycosylase (Homo sapiens)
measurement.setup: Compound Concentration 10.0 uM, Hit No
experimental.readout: inhibition (%)
Give your result in % as a bare value.

Q. Which inhibition is listed for `CCC(=O)N[C@@H]1CC[C@H](C(=O)N(C)c2ccc(-c3nc4ccccc4o3)cc2)C1` ?
A. 1.95

Q. And the next one, `CCC(=O)Nc1cccc(Oc2nc(Nc3ccc(N4CCN(C)CC4)cc3OC)ncc2Cl)c1` ?
A. -2.02

Q. Next compound up: `N[C@@H](Cn1cc(F)c(=O)[nH]c1=O)C(=O)O`
A. -5.2

Q. Next: `COc1cc(-c2cn[nH]c2)ccc1C(=O)Nc1ccc2c(c1)CCNCC2`
A. 2.84

Q. Now try `O=C(O)c1ccc(S(=O)(=O)N(Cc2ccc(OC(F)(F)F)cc2)c2ncc(C(F)(F)F)cc2Cl)cc1` .
A. 2.72

Q. Now the same for CCCCCNC(=O)N1CCC(CN(Cc2ccc(Cl)cc2)Cc2ccc([N+](=O)[O-])s2)C1 (centres undefined)
A. 9.26

Q. Param item: `CC(C)C(=O)Nc1n[nH]c2cc(-c3cccc(NS(=O)(=O)C4CC4)c3)ccc12`
A. -0.0214

Q. Repeat with `CCNC(=O)[C@H]1O[C@@H](n2cnc3c(N)nc(NCCc4ccc(CCC(=O)O)cc4)nc32)[C@H](O)[C@@H]1O`
A. -6.16

Q. Similarly, `O=C(O)c1ccc2cc(-c3ccc(O)c(C45CC6CC(CC(C6)C4)C5)c3)ccc2c1` ?
A. 4.34

###

Record form. Attribute: inhibition. Fill in for each entry.
target.of.assay: Endonuclease III-like protein 1 (Homo sapiens);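 note: enzyme assay tracking NTHL1 cutting and release of a quenched double-stranded DNA oligo substrate, read as fluorescence at 594 nm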
measurement.setup: Compound Concentration 10.0 uM, Hit No
Description: Inhibition of NTHL1 by quantifying inhibition of NTHL1-mediated cleavage and dissociation of quenched duplex DNA oligonucleotides, measured as fluorescence at 594 nm.
Provide only the numeric value, understood in %.

Q. Query: inhibition; subject: `CN1C(=O)[C@@H](NC(=O)c2cc3ccccc3[nH]2)N=C(c2ccccc2)c2ccccc21`
A. 22.4

Q. Moving on to the next molecule: `CCCNS(=O)(=O)Nc1ncnc(OCCOc2ncc(Br)cn2)c1-c1ccc(Br)cc1`
A. 7.05

Q. # iterate: `N#Cc1c[nH]c2c(C(=O)N3CCN(CCc4ccc(F)cc4)CC3)cccc12`
A. -5.41

Q. Would you kindly repeat that for `Cc1nnsc1C(=O)Nc1ccc(-n2nc(C(F)(F)F)cc2C(F)(F)F)cc1` ?
A. 14.6

Q. What do we get for `COC(=O)/C=C/c1cccc(N(Cc2ccc(-c3ccc(N(C)C)cc3)cc2)C(=O)C2CCCCC2)c1` ?
A. 7.26

###

target.of.assay: Uracil-DNA glycosylase (Homo sapiens) (UniProt P13051);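 note: UNG excision on a quenched double-stranded DNA oligo probe, with APE1 added for strand incision and turnover, read as fluorescence at 594 nm as strands separate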
Sequence (P13051 whole entry): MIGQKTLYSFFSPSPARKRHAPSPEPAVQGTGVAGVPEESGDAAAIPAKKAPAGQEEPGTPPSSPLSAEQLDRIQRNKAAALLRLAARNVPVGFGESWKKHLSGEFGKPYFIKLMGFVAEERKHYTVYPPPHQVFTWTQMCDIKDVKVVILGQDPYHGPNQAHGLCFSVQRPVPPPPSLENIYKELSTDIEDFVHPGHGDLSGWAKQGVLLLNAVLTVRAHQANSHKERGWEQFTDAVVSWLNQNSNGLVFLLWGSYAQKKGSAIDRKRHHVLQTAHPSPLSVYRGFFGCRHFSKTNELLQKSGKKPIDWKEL
measurement.setup: Compound Concentration 10.0 uM, Hit No
experimental.readout: inhibition (%)
Your answer is read as %, so omit the unit and give the number.

Q. Value wanted: inhibition (Uracil-DNA glycosylase (Homo sapiens) (UniProt P13051)) of entry `CN(C)CCn1cc(S(=O)(=O)c2cccc(F)c2)c2cccnc21`
A. -6.74

Q. And then `N/C(=N\C(=O)c1nc(Cl)c(N)nc1N)NCc1ccccc1` , what is it?
A. 4.68

Q. Now this one: `CNc1nc(NCc2ccc(NS(C)(=O)=O)cc2Cl)cc(-c2ccccn2)n1`
A. -9.82

Q. What do we get for `C[C@@H](NC(=O)Cc1ccc(C2CC2)cc1)c1ccc(OCC(F)(F)F)cn1` ?
A. -2.14

Q. Subsequent entry: `CCCCC[C@H](O)/C=C/[C@H]1CCC(=O)[C@@H]1CCCCCCC(=O)O`
A. -4.12

Q. Likewise for `CC(C)C(=O)N1CCC(c2cn(C)c3ncc(NC(=O)c4cccc(C#N)c4)c(C(F)(F)F)c23)CC1` ?
A. 5.34

Q. Also, `Cc1cccc(F)c1C(=O)Nc1cnc(-c2cc3c(cc2Cl)OC(F)(F)O3)cn1` please.
A. -6.24

Q. Now the compound COC(=O)C1=C(C)NC(C)=C(C(=O)OC(C)C)C1c1cccc2nonc12 (stereo not given)
A. -3.24

Q. Please do the same for `COc1cc(F)ccc1-c1ncnc(Nc2cccc(C[S@](C)(=N)=O)c2)n1` as well.
A. 2.17

Q. Same again, this time with `Cc1c(C2=CCN(C(=O)N(C)C(C)C)CC2)nnn1-c1cccnc1F`
A. -8.86

###

target.of.assay: Endonuclease 8-like 1 (Homo sapiens) (UniProt Q96FI4);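 note: fluorescence at 594 nm from quenched duplex DNA oligonucleotides released by NEIL1 cleavage and strand separation, reported as reduction of this enzyme activity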
Sequence (Q96FI4 whole entry): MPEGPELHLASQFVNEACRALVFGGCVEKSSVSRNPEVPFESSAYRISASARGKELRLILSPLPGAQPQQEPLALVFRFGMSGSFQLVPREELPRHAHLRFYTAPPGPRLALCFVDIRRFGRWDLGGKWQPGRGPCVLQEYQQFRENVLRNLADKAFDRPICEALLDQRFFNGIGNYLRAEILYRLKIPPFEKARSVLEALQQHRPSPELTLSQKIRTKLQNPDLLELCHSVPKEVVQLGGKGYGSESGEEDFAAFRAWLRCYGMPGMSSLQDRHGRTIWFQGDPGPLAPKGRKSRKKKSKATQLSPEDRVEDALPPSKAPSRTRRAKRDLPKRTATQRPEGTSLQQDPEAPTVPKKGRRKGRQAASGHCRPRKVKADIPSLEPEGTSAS
measurement.setup: Compound Concentration 10.0 uM, Hit No
Description: Inhibition of NEIL1 by quantifying inhibition of NEIL1-mediated cleavage and dissociation of quenched duplex DNA oligonucleotides, measured as fluorescence at 594 nm.
experimental.readout: inhibition (%)
Answer in %, number only, no unit symbol.

Q. Quick check: inhibition of `COc1cc(Nc2nccc(-c3cnn4nc(OC)ccc34)n2)cc(C(F)(F)F)c1` ?
A. 11.1

Q. Same question, `N#Cc1c(N)nc(SCC(N)=O)c(C#N)c1-c1ccc(OCC2CC2)cc1` this time
A. 5.43

Q. Can you check `CNc1nc(NCc2ccc(NS(C)(=O)=O)cc2Cl)cc(-c2ccccn2)n1` next?
A. 3.5

Q. Next: CCC(C)N(C)C(=O)c1cc2ccccc2c(-c2ccccc2Cl)n1 (centres undefined)
A. -9.53

Q. How about `CN1C[C@H](C(=O)N[C@]2(C)O[C@@]3(O)[C@@H]4CCCN4C(=O)[C@H](Cc4ccccc4)N3C2=O)C[C@@H]2c3cccc4[nH]cc(c34)C[C@H]21` ?
A. 9.88

Q. Item: `O=C(NCCN1CCOCC1)c1ccc2c(c1)C(=O)c1ccc(Nc3ccc(F)c(NC(=O)c4ccccc4)c3)cc1CC2`
A. -5.6

Q. Please answer likewise for `CC(=O)c1ccc2c(c1)[C@@H]1C=CC[C@@H]1[C@H](c1cc3c(cc1Br)OCO3)N2`
A. 1.72

Q. Another: `COc1cc2nc(N3CCN(C(=O)COc4c(OC)cccc4C(C)C)CC3)nc(N)c2cc1OC`
A. 10.1

Q. Cool, now `Cc1ccc(/C(=C\CN2CCCC2)c2ccccn2)cc1`
A. 5.28

Q. // next record `Nc1nc2cc(-c3cc(Cl)ccc3Oc3cc(F)c(S(=O)(=O)Nc4ncns4)cc3F)ccc2[nH]1`
A. 6.97

Q. // same read-out, input: `CN(C)C(=O)N[C@H]1CC[C@H](CCN2CCN(c3cccc(Cl)c3Cl)CC2)CC1`
A. -4.8

Q. Repeat for the following compound: `Cc1nc(C(=O)N2CCC[C@H]2Cc2nnc(-c3ccccc3)o2)c(-c2ccccc2F)s1`
A. 2.46

Q. What do you get for `COc1ccc(CCCN2CCC(COC(c3ccccc3)c3ccccc3)CC2)cc1` ?
A. 4.75

Q. One more compound: Cc1onc(O)c1CC(N)C(=O)O (centres undefined)
A. -4.58

Q. What do you get for C[S+]([O-])c1ccc(-c2nc(-c3ccc(F)cc3)c(-c3ccncc3)[nH]2)cc1 (centres undefined) ?
A. -8.51

Q. Could you do the same for `O=C(N[C@@H]1CC[C@@H](c2cccc(F)c2F)CN(CC(F)(F)F)C1=O)N1CCC(n2c(=O)[nH]c3ncccc32)CC1` , please?
A. -5.1

Q. `O=S(=O)(Nc1nnc2cc(OCC34CC5CC(CC(C5)C3)C4)c(C3CC3)cn12)C1CC1` , same question.
A. 6.23

Q. Entry `COc1cc(-c2cn[nH]c2)ccc1C(=O)Nc1ccc2c(c1)CCNCC2` please
A. -5.41

Q. What about `Nc1ncnc2c1ncn2[C@@H]1O[C@H](CO)[C@@H](O)[C@H]1O` ?
A. 8.25
